- Assay overview: qHTS Screen of the MIPE 4.0 Collection Against Ewings Sarcoma (RDES) (AID 1259252); further: nearly all actives have a fitted effect of over 35% in size; further: potency means the concentration at half of the fitted maximal effect
- Experimental parameters: RD-ES Ewing sarcoma viability, CellTiter-Glo, 48 h; series mostly up to 45.8 µM
- Experimental: There is a large unmet medical need for treatments for Ewing sarcoma, a pediatric sarcoma. […] Using the NCATS developed oncology compound library called the Mechanism of Interrogation Plate (MIPE), four Ewing sarcoma cell lines were evaluated (TC32, TC71, RDES, EW8). Compounds, in a 12-point titration series, were incubated with cells for 48 hours and the read out was cell viability (CellTiter-Glo from Promega). […]
Records with an inconclusive call do not appear. Active and inactive are the calls of the source. The call rests on the fitted dose curve; in most records, active means well fitted inhibition curve with a large enough effect; inconclusive means small, poorly fitted or top-dose-only effect; inactive means no such curve, though single readings can be large or run the other way.

Molecule	Potency
CCC(c1ccc(O)cc1)C(CC)c1ccc(O)cc1 (configuration not stated)	743 nM (active)
CC(=O)OCC(=O)[C@@]1(O)CC[C@H]2[C@@H]3CCC4=CC(=O)C=C[C@]4(C)[C@@H]3[C@@H](O)C[C@@]21C	inactive
C[C@]12CCC3=C4CCC(=O)C=C4CC[C@@H]3[C@H]1CC[C@@]2(O)CC#N	inactive
COc1cc2ncnc(Nc3cc(Br)c(O)c(Br)c3)c2cc1OC	41.8 nM (active)
C[C@@H]1[C@H](C)CC[C@]2(C(=O)O)CC[C@]3(C)C(=CC[C@@H]4[C@@]5(C)CC[C@H](O)C(C)(C)[C@H]5CC[C@]43C)[C@@H]12	2700 nM (active)
O=C(CO)N1CCC(c2[nH]nc(-c3ccc(Cl)cc3)c2-c2ccncn2)CC1	inactive
Cc1ccccc1C(=O)c1ccc(Nc2ccc(Br)cc2N)cc1Cl	23500 nM (active)

* * *

- Assay overview: Quantitative High-Throughput drug screen in 47 multiple myeloma cell lines against the NCATS MIPE library collection: EJM_DSMZ cell viability assay (AID 1918926; further: nearly all actives have a fitted effect of over 30% in size; further: potency means the concentration at half of the fitted maximal effect)
- Experimental parameters: EJM myeloma cell viability, CellTiter-Glo ATP, 48 h; series mostly up to 45.8 µM
Records with an inconclusive call do not appear. Active and inactive are the calls of the source. Calls follow the shape of the dose curve; as a rule, active = well fitted cell-killing curve with a large enough effect; inconclusive = small, poorly fitted or top-dose-only effect, or effect the other way; inactive = no such curve, though single readings can be large or run the other way.

Compound	Potency
O=C(NCCCCN1CCOCC1)c1cc2ccccc2o1	inactive
Fc1ccc(C(c2ccc(F)cc2)N2CCN(CC=Cc3ccccc3)CC2)cc1	inactive
O=C1C(CCC(O)c2ccc(F)cc2)C(c2ccc(O)cc2)N1c1ccc(F)cc1 (centres undefined)	inactive
CN1c2ccccc2C(=O)N2CCc3c([nH]c4ccccc34)C21 (centres undefined)	inactive
CON(C)C(=O)N1N=C(c2cc(F)ccc2F)S[C@]1(CCCN)c1ccccc1	inactive
COc1ccc(-c2ccc3ncc4c(c3c2)n(-c2ccc(N3CCNCC3)c(C(F)(F)F)c2)c(=O)n4C)cn1	0.0332 µM (active)
CC(C)(OCc1nn(Cc2ccccc2)c2ccccc12)C(=O)O	9.35 µM (active)
CNc1nc(Nc2ccc(C(=O)N3CCOCC3)cc2OC)ncc1Cl	inactive
COc1cc(C=CC(=O)O)ccc1O	inactive
CC(C)(F)C[C@H](N[C@@H](c1ccc(-c2ccc(S(C)(=O)=O)cc2)cc1)C(F)(F)F)C(=O)NC1(C#N)CC1	inactive
C[C@]12CCC3=C4CCC(=O)C=C4CC[C@@H]3[C@H]1CC[C@@]2(O)CC#N	inactive
CCCC1OC2C[C@@H]3[C@H]4CCC5=CC(=O)C=C[C@]5(C)[C@H]4C(O)C[C@]3(C)[C@]2(C(=O)CO)O1 (some centres undefined)	11.8 µM (active)
Cc1[nH]c(C=C2C(=O)Nc3ccc(S(=O)(=O)N(C)c4cccc(Cl)c4)cc32)c(C)c1C(=O)N1CCN(C)CC1	23.5 µM (active)
CCCCCCCCCCCCCCCC(=O)O[C@H]1[C@@H](O)[C@@H](O)[C@@H]([C@H](NC(=O)[C@@H]2C[C@@H](CCC)CN2C)[C@H](C)Cl)O[C@@H]1SC	inactive
COc1ccc(C=CC(=O)Nc2ccccc2C(=O)O)cc1OC	inactive
COc1ccc(-c2cc3nccn3c(Nc3ncccc3C(N)=O)n2)cc1OC	4.69 µM (active)
CC(C)Oc1cc(Nc2nc(N[C@@H](C)c3ccc(F)cn3)ncc2Cl)[nH]n1	20.9 µM (active)
Cn1c(=O)c(Oc2ccc(F)cc2F)cc2cnc(NC3CCOCC3)nc21	inactive
O=C(O)c1ccc(O)c2ncc(N3CCOCC3)cc12	inactive

* * *

- System: PA-1
- Assay overview: Primary qHTS to identify gynecologic anti-cancer compounds using libraries of approved drugs and bioactive compounds (AID 1345084); further: nearly all actives have a fitted effect of over 55% in size
- Experimental parameters: Gynecologic cancer cell panel viability, ATPlite luminescence, 48 h; series mostly up to 57.5 µM
- Text: National Center for Advancing Translational Sciences [NCATS] Assay Overview: Chemotherapeutic drug responses vary from cancer to cancer and from patient to patient. […] ATPlite is a luminescence based assay reliant on the conversion of a luciferase substrate to light in the presence of ATP. As a cytotoxic compound will suppress growth and decrease the number of cells, the concentration of ATP will decrease, and less light signal will be detected in the well. […]
Results filed as inconclusive are left out. Calls of active or inactive are those of the source. Calls come from the whole dose curve; as a rule, active = well fitted cell-killing curve with a large enough effect; inconclusive = small, poorly fitted or top-dose-only effect, or effect the other way; inactive = flat fitted curve, though single readings scatter.
Classes used: active, inactive

Smiles repr	Label class
CC1CCN(c2cc(N3CCN(C)CC3)ccc2NC(=O)c2cc(C#N)c[nH]2)CC1	inactive
N#CC1(c2cccc(C(=O)Nc3cc(Oc4ccc5nc(NC(=O)C6CC6)sc5n4)ccc3F)c2Cl)CC1	active
C[C@@H]1C[C@H]2[C@@H]3CCC4=CC(=O)C=C[C@]4(C)[C@@]3(F)[C@@H](O)C[C@]2(C)[C@@]1(O)C(=O)CO	inactive
CCCCC[C@H](O)C=C[C@H]1[C@H](O)CC(=O)[C@H]1CC=CCCCC(=O)O	inactive
COc1cc2ncnc(Nc3cc(Br)c(O)c(Br)c3)c2cc1OC	inactive
CCN1CCC(n2cc(CNc3cc(Cl)c4ncc(C#N)c(Nc5ccc(F)c(Cl)c5)c4c3)nn2)CC1	inactive

* * *

- Assay overview: Quantitative High-Throughput drug screen in 47 multiple myeloma cell lines against the NCATS MIPE library collection: KMS11_JCRBsus cell viability assay (AID 1919873); further: nearly all actives have a fitted effect of over 50% in size
- Experimental parameters: KMS11 myeloma viability, CellTiter-Glo ATP luminescence, 48 h; series mostly up to 45.8 µM
Records with an inconclusive call do not appear. Calls of active or inactive are those of the source. Calls come from the whole dose curve; as a rule, active = well fitted cell-killing curve with a large enough effect; inconclusive = small, poorly fitted or top-dose-only effect, or effect the other way; inactive = no such curve, though single readings can be large or run the other way.
Classes used: YES = active, NO = inactive

Compound	Label class
COc1cc(C=CC(=O)O)ccc1O	NO
NC(=O)c1nnn(Cc2cc(Cl)c(C(=O)c3ccc(Cl)cc3)c(Cl)c2)c1N	YES
CC1=C(CC(=O)O)c2cc(F)ccc2C1=Cc1ccc(S(C)=O)cc1 (stereo not given)	YES
COc1nc(C)cnc1NS(=O)(=O)c1cccnc1-c1ccc(-c2nnco2)cc1	NO
COc1cc2c(cc1OC)[C@@H]1Cc3ccc(OC)c(OC)c3CN1CC2	YES
O=C(c1ccc(F)c(F)c1Nc1ccc(I)cc1F)N1CC(O)([C@H]2CCCCN2)C1	YES
O=C1Nc2ccc(I)cc2C1=Cc1cc(Br)c(O)c(Br)c1	YES
C[C@@H]1CCO[C@H]2Cn3cc(C(=O)NCc4ccc(F)cc4F)c(=O)c(O)c3C(=O)N12	YES
CNC1CCC(N(Cc2cccc(-c3ccncc3)c2)C(=O)c2sc3ccccc3c2Cl)CC1 (stereo not given)	YES
CC1=C[C@@H]2[C@@H]([C@@H](O)C[C@@]3(C)[C@H]2C[C@@H](C)[C@]3(O)C(=O)CO)[C@@]2(C)Cc3cnn(-c4ccccc4)c3C=C12	YES
Cc1ccc(S(=O)(=O)Nc2nc3ccccc3nc2Nc2ccc3nsnc3c2)cc1	YES
Cc1cc(-c2ncc(CC(=O)Nc3ccc(-c4cnccn4)cn3)cc2C)ccn1	YES
COc1cc(CNC(=O)CCCCC=CC(C)C)ccc1O	NO
COC(=O)Nc1ccc(-c2nc(N3CCOCC3)c3cnn(C4CCN(C(=O)OC)CC4)c3n2)cc1	YES
CSc1cccc(Nc2ncc3cc(-c4c(Cl)cccc4Cl)c(=O)n(C)c3n2)c1	YES

* * *

Form field: Z-AUC (one value per entry).
- Assay overview: qHTS drug screen for cell cycle checkpoint inhibitors in PARPi-resistant BRCA-mutant ovarian cancer cell lines. (AID 1963452)
- Experimental parameters: PEO1/OlaR viability, CellTiter-Glo luminescence, 96 h; measured here: PEO1 parental Z-AUC; stronger effect = lower value
Property measured: Z-AUC

Compound	Property measured	Readout number
CN1CCN2c3ncccc3Cc3ccccc3C2C1 (centres undefined)	Z-AUC	-0.0867
O=C(CO)N1CCC(c2[nH]nc(-c3ccc(Cl)cc3)c2-c2ccncn2)CC1	Z-AUC	0.349
O=C(Nc1cccc(Cl)c1)Nc1ncc(CCNc2ncnc3ccsc23)s1	Z-AUC	-1.1
Cc1cc(-c2ncc(CC(=O)Nc3ccc(-c4cnccn4)cn3)cc2C)ccn1	Z-AUC	-0.663

* * *

- Assay overview: Quantitative High-Throughput drug screen in 47 multiple myeloma cell lines against the NCATS MIPE library collection: JIM3_ECACC cell viability assay (AID 1918963; further: nearly all actives have a fitted effect of over 35% in size)
- Experimental parameters: JIM3 myeloma viability, CellTiter-Glo ATP, 48 h; series mostly up to 45.8 µM
Inconclusive results are not listed. The source made the active and inactive calls. The call rests on the fitted dose curve; in most records, active means well fitted cell-killing curve with a large enough effect; inconclusive means small, poorly fitted or top-dose-only effect; inactive means no such curve, though single readings can be large or run the other way.
Classes used: active, inactive

Molecule	Label class
Cc1cc2nc3c(=O)[nH]c(=O)nc-3n(CC(O)C(O)C(O)CO)c2cc1C (stereo unspecified)	inactive
CN1c2ccccc2C(=O)N2CCc3c([nH]c4ccccc34)C21 (stereo unspecified)	active
CCC[C@H](N[C@@H](C)C(=O)N1[C@@H]2CCCC[C@H]2C[C@H]1C(=O)O)C(=O)OCC	active
OC(c1cc(C(F)(F)F)nc2c(C(F)(F)F)cccc12)C1CCCCN1 (stereo unspecified)	active
CC1(C)CC(=O)c2c(C(F)(F)F)nn(-c3ccc(C(N)=O)c(NC4CCC(O)CC4)c3)c2C1 (stereo unspecified)	active
CCCCC[C@H](O)C=C[C@H]1[C@H](O)CC(=O)[C@H]1CC=CCCCC(=O)O	active
O=c1cc(-c2ccc(O)c(O)c2)oc2cc(O)cc(O)c12	inactive
CC(C)C[C@@H](N)[C@H](O)C(=O)N[C@H](C(=O)N[C@H](C(=O)N[C@@H](CC(=O)O)C(=O)O)C(C)C)C(C)C	active
NC(=O)c1ncn([C@@H]2O[C@H](CO)[C@@H](O)[C@@H]2O)n1	inactive
CCC=CC[C@H]1C(=O)CC[C@@H]1CC(=O)OC	inactive
C[C@@H](N)c1ccc(C(=O)Nc2ccnc3[nH]ccc23)cc1	active
CN1CC(=O)NC1=NC(=O)Nc1cccc(Cl)c1	active
O=C(CO)N1CCC(c2[nH]nc(-c3ccc(Cl)cc3)c2-c2ccncn2)CC1	inactive
O=C(Nc1cccc(Cl)c1)Nc1ncc(CCNc2ncnc3ccsc23)s1	active
CC[C@H]1OC(=O)[C@H](C)[C@@H](O[C@H]2C[C@@](C)(OC)[C@@H](O)[C@H](C)O2)[C@H](C)[C@@H](O[C@@H]2O[C@H](C)C[C@H](N(C)C)[C@H]2O)[C@](C)(O)C[C@H](C)C(=NOCOCCOC)[C@H](C)[C@@H](O)[C@]1(C)O	inactive
CC1CCN(c2cc(N3CCN(C)CC3)ccc2NC(=O)c2cc(C#N)c[nH]2)CC1	inactive
CC(O)=C(C#N)C(=O)Nc1ccc(C(F)(F)F)cc1	active
C[C@H]1O[C@@H](n2cc(F)c(=O)[nH]c2=O)[C@H](O)[C@H]1O	active
Cc1cc(NC(=O)Nc2ccc(N(C)C)cc2)c2cc(F)cc(F)c2n1	inactive
O=C(O)C1=CO[C@@H](O[C@@H]2O[C@H](CO)[C@H](O)[C@H](O)[C@H]2O)[C@@H]2C(CO)=CC[C@H]12	inactive
COc1ccc(CCC(=O)Nc2nc3ccc(Cl)cc3s2)cc1OC	active
